# Lookup of reported OD600 change keyed by entry
run.description: GFP drop in mixed WT/humanized-ribosome E. coli culture – GFP/RFP fluorescence, OD600, single point, bacterial rRNA inhibitor project, primary screen (AID 720706)
run.conditions: E. coli WT GFP vs humanized-ribosome RFP mutants, 24 h; measured here: OD600 growth, DMSO median 0, no signal -100
Hit rate of the full screen: of about 350,000 compounds, about 5,500 (1.6%) were called active. The full list was thinned out, with actives kept by preference.
Form entry: value (%) — number only.

>  <smiles>
CC(C)[C@@H]1COCc2cnnn2CCC[C@H](C)C(=O)N1

>  <experimental.result>
7.64

$$$$
>  <smiles>
CO[C@@H]1CN(C)C(=O)c2cc(NS(=O)(=O)c3ccc(C)cc3)ccc2OC[C@H](C)N(Cc2nccs2)C[C@@H]1C

>  <experimental.result>
-14.7

$$$$
>  <smiles>
O=C(N/N=C/c1cc(Br)c(O)c([N+](=O)[O-])c1)C(O)(c1ccccc1)c1ccccc1

>  <experimental.result>
-17.8

$$$$

Moving on to the next compound.
Query: Would you mind telling me what OD600 change value was observed for C[C@@H]1CCCCO[C@H](CN(C)C(=O)NC2CCCCC2)[C@H](C)CN([C@@H](C)CO)C(=O)c2cc(NC(=O)C3CCCCC3)ccc2O1 ?
Result: -0.493

----------
run.description: GFP drop in mixed WT/humanized-ribosome E. coli culture – GFP/RFP fluorescence, OD600, single point, bacterial rRNA inhibitor project, primary screen (AID 720706)
run.conditions: E. coli WT GFP vs humanized-ribosome RFP mutants, 24 h; measured here: OD600 growth, DMSO median 0, no signal -100
Among all 350,000 compounds or so, about 5,500 (1.6%) were called active. The list comes from a sample in which actives are over-represented; it also holds close analogues and randomly drawn compounds.
measurement.type: OD600 change (%)
Respond with the bare value in %.

Example cases with answers are listed next.
>  <molecule>
C[C@@H]1CN(C)C(=O)c2cccc(N(C)C)c2O[C@H]1CN(C)S(C)(=O)=O

>  <OD600 change, %>
-2.43

$$$$
>  <molecule>
O=C(NCC1CC1)[C@@H]1[C@@H](CO)[C@@H]2Cn3c(ccc(-c4ccncc4)c3=O)[C@H]1N2Cc1nccs1

>  <OD600 change, %>
4.86

$$$$
>  <molecule>
NC(=O)c1ccc(CN2CCC(Cc3ccccc3)CC2)cc1

>  <OD600 change, %>
10.4

$$$$
>  <molecule>
CN(C)CCCNC(=O)C[C@H]1CC[C@H]2[C@@H](COC[C@H](O)CN2C(=O)c2ccncc2)O1

>  <OD600 change, %>
1.82

$$$$
>  <molecule>
O=C(CCc1ccccc1)Nc1ncc([N+](=O)[O-])s1

>  <OD600 change, %>
-20.7

$$$$
>  <molecule>
Oc1ccc(/C=N/N(Cc2ccccc2)c2ccccc2)cc1

>  <OD600 change, %>
-1.62

$$$$
>  <molecule>
CCC(=O)N1CC(=O)N2[C@@H](CO)[C@H](c3ccc(C#CC4CCCC4)cc3)[C@@H]2C1

>  <OD600 change, %>
-3.78

$$$$
>  <molecule>
C[C@H](CO)N1C[C@H](C)[C@H](CN(C)Cc2ccncc2)Oc2ccc(NC(=O)Nc3ccc(F)cc3)cc2C1=O

>  <OD600 change, %>
-2.2

$$$$

Query: Look up OD600 change for this molecule: O=S1(=O)c2ccc(Br)cc2-n2nncc2CN1Cc1cccc(Cl)c1
Result: -16.9

Query: Recorded OD600 change of COc1ccc(S(=O)(=O)Nc2ccc3c(c2)C(=O)N(C)C[C@@H](OC)[C@H](C)CN(C(=O)NC(C)C)[C@H](C)CO3)cc1 , please.
Result: -6.48

Query: So what's the measured OD600 change for this one? COC(=O)CSc1nnc(NC(=O)CCc2ccccc2)s1
Result: 5.71

Query: Quick one: OD600 change for O=S1(=O)CCOC[C@H](Cc2ccccc2)N1Cc1ccccc1Br ?
Result: -12.2

Query: Report OD600 change for CCOc1ccc(N2C(=O)Nc3ccccc3C2(O)C(=O)NCc2ccco2)cc1 (centres undefined) please.
Result: 2.6

Query: # get_value(readout='OD600 change', item= CC(C)NC(=O)Nc1ccc2c(c1)CC(=O)N([C@@H](C)CO)C[C@@H](C)[C@H](CN(C)Cc1ccc(C(F)(F)F)cc1)O2 )
Result: -34.5

Query: May I ask what OD600 change has been recorded for Cc1cc(N2CCN(C)CC2)nc2ccc(NC(=S)N3CCOCC3)cc12 ?
Result: 1.93

----------
run.description: GFP drop in mixed WT/humanized-ribosome E. coli culture – GFP/RFP fluorescence, OD600, single point, bacterial rRNA inhibitor project, primary screen (AID 720706)
run.conditions: E. coli WT GFP vs humanized-ribosome RFP mutants, 24 h; measured here: RFP humanized mutant strains, DMSO median 0, no signal -100, concentration not given here
In all, about 350,000 compounds went through this assay and about 5,500 (1.6%) were called active. Only a selection was taken, and actives are over-represented in it overall.
measurement.type: RFP signal change (%)
Your answer is read as %, so omit the unit and give the number.

>  <compound>
CCC(=O)Nc1ccc2c(c1)nc(CCN1CCN(c3ccccn3)CC1)n2C

>  <measurement.type>
RFP signal change

>  <experimental.result>
1.64

$$$$
>  <compound>
Cn1c(CCN2CCN(c3ccccn3)CC2)nc2cc(NS(=O)(=O)c3ccc(F)cc3)ccc21

>  <measurement.type>
RFP signal change

>  <experimental.result>
3.47

$$$$
>  <compound>
COc1ccc(-c2ccc([C@@H]3[C@@H](CO)N4C(=O)CN(Cc5ccccc5)C[C@@H]34)cc2)cc1

>  <measurement.type>
RFP signal change

>  <experimental.result>
0.737

$$$$
>  <compound>
Cc1cc(C(=O)COc2ccccc2Cl)c(C)n1C1CC1

>  <measurement.type>
RFP signal change

>  <experimental.result>
0.284

$$$$
>  <compound>
CN(C)CC(=O)N1[C@H](C#N)[C@H](c2ccccc2-c2cccc(C(=O)N(C)C)c2)[C@@H]1CO

>  <measurement.type>
RFP signal change

>  <experimental.result>
-2.26

$$$$
>  <compound>
Cc1cc(C(=O)COC(=O)C2CC2)c(C)n1-c1ccc(F)cc1

>  <measurement.type>
RFP signal change

>  <experimental.result>
-5.46

$$$$
>  <compound>
COc1ccc(S(=O)(=O)Nc2ccc3c(c2)CC(=O)N([C@@H](C)CO)C[C@@H](C)[C@@H](CN(C)Cc2ccc(C(=O)Nc4ccccc4N)cc2)O3)cc1

>  <measurement.type>
RFP signal change

>  <experimental.result>
2.02

$$$$
>  <compound>
Cc1cc(-c2ccc(C)c(S(=O)(=O)NCCCN(Cc3ccccc3)C(C)C)c2)on1

>  <measurement.type>
RFP signal change

>  <experimental.result>
1.25

$$$$

Query: // returns reported RFP signal change for input C[C@@H]1CN([C@H](C)CO)C(=O)c2cccc(NC(=O)Nc3ccc(F)cc3)c2O[C@@H]1CN(C)C(=O)Nc1ccc(C(F)(F)F)cc1
Result: -2.09

Query: Need RFP signal change of O=C(NCCCc1ccccc1)C(=O)c1c[nH]c2ccccc12 , thanks.
Result: -2.69

Query: Name the reported RFP signal change value associated with the compound C/C=C/c1cnc2c(c1)C(=O)N([C@H](C)CO)C[C@H](C)[C@H](CN(C)C(=O)c1cccc(F)c1)O2
Result: -3.73

Query: Entry CC(C)NC(=O)N1CCCCN2[C@H](CO)[C@H](c3ccc(C#C[C@H](C)O)cc3)[C@H]2C1 has what RFP signal change?
Result: 2.67

----------
run.description: GFP drop in mixed WT/humanized-ribosome E. coli culture – GFP/RFP fluorescence, OD600, single point, bacterial rRNA inhibitor project, primary screen (AID 720706)
run.conditions: E. coli WT GFP vs humanized-ribosome RFP mutants, 24 h; stronger effect = lower value, DMSO median 0, no signal -100
The campaign covered roughly 350,000 compounds. About 5,500 (1.6%) were called active. The full list was thinned out, with actives kept by preference.
Listing: GFP signal change (wild-type ribosome) of selected compounds

>  <compound>
CCc1cc(C(=O)OC)c(NC(=O)CC2Sc3ccc(C(F)(F)F)cc3NC2=O)s1 (configuration not stated)

>  <GFP signal change (wild-type ribosome)>
0.188% (inactive)

$$$$

Query: Can you look up the measured GFP signal change (wild-type ribosome) of C[C@@H]1CN([C@H](C)CO)C(=O)c2cccc(NC(=O)Nc3ccc4c(c3)OCO4)c2O[C@H]1CN(C)S(=O)(=O)c1ccccc1 for me?
Result: -2.91% (inactive)

Query: Request the reported GFP signal change (wild-type ribosome) associated with Cc1cccc(-c2ccc([C@@H]3[C@@H](CO)N4CCCCN(S(=O)(=O)c5cccs5)C[C@H]34)cc2)c1
Result: -37.8% (active)

Query: // lookup GFP signal change (wild-type ribosome) for COc1ccccc1CNC(=O)C[C@@H]1CC[C@@H]2[C@@H](COc3ccc(NC(=O)Nc4ccc(F)c(F)c4)cc3C(=O)N2C)O1
Result: -9.44% (inactive)

Query: Dear colleague, I am looking for the recorded GFP signal change (wild-type ribosome) of the following compound: O=C(c1cnccn1)N1CC(=O)N2[C@H](C1)[C@@H](c1ccc(C3=CCCCC3)cc1)[C@@H]2CO
Result: 3.19% (inactive)

Query: Can you look up the measured GFP signal change (wild-type ribosome) of CC(C)NC(=O)N(C)C[C@H]1Oc2ccc(NS(C)(=O)=O)cc2C(=O)N(C)C[C@@H]1C for me?
Result: 2.01% (inactive)

Query: What measured GFP signal change (wild-type ribosome) goes with Cc1cc(-c2ccc(C)c(S(=O)(=O)NCCCN(Cc3ccccc3)C(C)C)c2)on1 ?
Result: -6% (inactive)

Query: What does the record list as GFP signal change (wild-type ribosome) for COc1ccc(NC(=O)N(C)C[C@@H]2OCCCC[C@@H](C)Oc3ccc(NS(C)(=O)=O)cc3C(=O)N([C@@H](C)CO)C[C@H]2C)cc1 ?
Result: -0.988% (inactive)

Query: Which GFP signal change (wild-type ribosome) is reported for this compound? C[C@H]1CN([C@@H](C)CO)C(=O)Cc2cc(NC(=O)Cc3ccccc3)ccc2O[C@H]1CN(C)S(=O)(=O)c1ccc(Cl)cc1
Result: 6.12% (inactive)

Query: Quick check: GFP signal change (wild-type ribosome) of COC(=O)c1cc(C)sc1NC(=O)CC1Nc2ccccc2NC1=O (configuration not stated) ?
Result: -18.4% (active)

Query: Given the compound C[C@@H]1CCCCO[C@@H](CN(C)C(=O)Nc2cccc3ccccc23)[C@H](C)CN([C@H](C)CO)C(=O)c2cc(NS(C)(=O)=O)ccc2O1 , what is its reported GFP signal change (wild-type ribosome)?
Result: 2.97% (inactive)

Query: Tell me the measured GFP signal change (wild-type ribosome) of Cc1nnc(N/N=C/c2ccccn2)[nH]c1=O , please.
Result: -26% (active)

Query: Please give the measured GFP signal change (wild-type ribosome) for this compound: CCC(=O)N(C)C[C@@H]1Oc2ncc(-c3ccccc3OC)cc2C(=O)N([C@@H](C)CO)C[C@@H]1C
Result: -1.63% (inactive)

Query: I'd like to know its GFP signal change (wild-type ribosome). The compound in question is CCOc1ccccc1CNS(=O)(=O)c1cc(-c2cc(C)no2)ccc1C
Result: -6.17% (inactive)

Query: So what does the record say about GFP signal change (wild-type ribosome) for COc1ccc(NC(=O)CN(Cc2ccccc2)S(C)(=O)=O)cc1OC ?
Result: 7.38% (inactive)

Query: Which GFP signal change (wild-type ribosome) value is on record for CCC(=O)Nc1ccc2c(c1)C(=O)N(C)[C@@H]1CC[C@H](CC(=O)NCCc3ccncc3)O[C@@H]1CO2 ?
Result: 2.16% (inactive)

Query: May I ask what GFP signal change (wild-type ribosome) has been recorded for CNC[C@H]1Oc2ncccc2C(=O)N(C)C[C@@H]1C ?
Result: 2.83% (inactive)
